- Assay target: acyl-CoA: cholesterol acyltransferase (ACAT) (Oryctolagus cuniculus)
- Sequence (G1SFD9 1-524): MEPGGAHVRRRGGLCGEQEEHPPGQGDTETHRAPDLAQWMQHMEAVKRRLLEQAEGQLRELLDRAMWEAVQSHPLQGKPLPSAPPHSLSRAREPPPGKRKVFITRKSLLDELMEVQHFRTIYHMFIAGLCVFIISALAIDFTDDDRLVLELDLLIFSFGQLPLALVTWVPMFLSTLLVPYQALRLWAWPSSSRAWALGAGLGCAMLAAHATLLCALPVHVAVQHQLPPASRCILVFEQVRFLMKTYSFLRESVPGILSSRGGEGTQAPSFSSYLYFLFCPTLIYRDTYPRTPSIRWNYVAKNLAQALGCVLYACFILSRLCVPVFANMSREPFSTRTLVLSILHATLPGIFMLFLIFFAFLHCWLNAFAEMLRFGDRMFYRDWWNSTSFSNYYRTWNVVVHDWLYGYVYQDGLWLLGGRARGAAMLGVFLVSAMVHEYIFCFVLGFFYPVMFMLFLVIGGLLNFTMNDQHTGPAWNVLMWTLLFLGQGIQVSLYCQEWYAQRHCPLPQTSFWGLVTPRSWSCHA
pIC50: −log10 of the molar value.

[
  {
    "Compound": "CC(C)c1cccc(C(C)C)c1NC(=O)Nc1nnn(CCCCCCCCCCCCO)n1",
    "pIC50": 7.68
  },
  {
    "Compound": "CCCCCCn1nnc(NC(=O)Nc2c(C(C)C)cccc2C(C)C)n1",
    "pIC50": 7.14
  },
  {
    "Compound": "CCCCCCCCCCCCCCCCn1nnc(NC(=O)Nc2c(C(C)C)cccc2C(C)C)n1",
    "pIC50": 7.24
  },
  {
    "Compound": "CCCCCCCCCCn1nnnc1NC(=O)Nc1c(C(C)C)cccc1C(C)C",
    "pIC50": 6.74
  },
  {
    "Compound": "CC(C)c1cccc(C(C)C)c1NC(=O)Nc1nnn(CCCCCCCCCCO)n1",
    "pIC50": 7.14
  },
  {
    "Compound": "CCCCCCCCCCCCCn1nnc(NC(=O)Nc2c(C(C)C)cccc2C(C)C)n1",
    "pIC50": 8.05
  },
  {
    "Compound": "CC(C)c1cccc(C(C)C)c1NC(=O)Nc1nnnn1Cc1ccccc1",
    "pIC50": 6.52
  },
  {
    "Compound": "CC(C)c1cccc(C(C)C)c1NC(=O)Nc1nnnn1CCc1ccccc1",
    "pIC50": 6.49
  },
  {
    "Compound": "CC(C)c1cccc(C(C)C)c1NC(=O)Nc1nnn(CCCCCCCCCCCCOC2CCCCO2)n1 (stereo not drawn)",
    "pIC50": 7.44
  }
]
